Reference source for all entries: patent US8093226B2

Test system: HCT15
test summary: Test A: Cytostatic Cell Culture Assay (GI50), HCT15
Type: cell-based
run parameters: Homo sapiens, HCT-15, 120 h; HCT15 cells, 5 days, SRB; read-out: G150 Colon HCT15
Source text: Test A: Cytostatic Cell Culture Assay (GI50) This assay is based on quantification of cell counts by a calorimetric detection of the cell associated proteins. The assay relies on the ability of sulforhodamine B (SRB) to bind to protein components of cells that have been fixed to tissue-culture plates by trichloroacetic acid (TCA). […] • 1. […] Measure the OD at 500 nm in a microplate reader. • 13. […]
recorded endpoint: IC50 (µM)

These recorded examples may help you get a feel for the data.
{"structure notation": "OC[C@H]1O[C@@H](n2ccc3c(-c4ccc[se]4)ncnc32)[C@H](O)[C@@H]1O", "observed value": 0.005}
{"structure notation": "OC[C@H]1O[C@@H](n2cc(Cl)c3c(-c4ccsc4)ncnc32)[C@H](O)[C@@H]1O", "observed value": 0.148}
{"structure notation": "OC[C@H]1O[C@@H](n2cc(Cl)c3c(-c4ccccc4)ncnc32)[C@H](O)[C@@H]1O", "observed value": 0.29}
{"structure notation": "OC[C@H]1O[C@@H](n2cc(Cl)c3c(-c4ccoc4)ncnc32)[C@H](O)[C@@H]1O", "observed value": 0.632}

[A] OC[C@H]1O[C@@H](n2cc(F)c3c(-c4ccc[nH]4)ncnc32)[C@H](O)[C@@H]1O
[B] OC[C@H]1O[C@@H](n2ccc3c(-c4nccs4)ncnc32)[C@H](O)[C@@H]1O
Consider A and B . Which of these has its IC50 at a higher number? To answer, give the label that identifies your chosen option. B
(B: 0.208 µM, A: 0.111 µM)

[A] OC[C@H]1O[C@@H](n2cc(F)c3c(-c4c[nH]cn4)ncnc32)[C@H](O)[C@@H]1O
[B] OCc1ncnc2c1ccn2[C@@H]1O[C@H](CO)[C@@H](O)[C@H]1O
[C] OC[C@H]1O[C@@H](n2cc(F)c3c(-c4cccs4)ncnc32)[C@H](O)[C@@H]1O
Order field: IC50 | Direction: descending (largest first) Lab note: record answer as labels in requested order. A, B, C
(A: 3.59 µM, B: 0.03 µM, C: 0.018 µM)

====

System: HCT116
test summary: Test A: Cytostatic Cell Culture Assay (GI50), HCT116
Type: cell-based
run parameters: Homo sapiens, HCT-116, 120 h; HCT116 cells, 5 days, SRB; read-out: G150 Colon HCT116
recorded endpoint: IC50 (nM)

Past entries and their recorded results:
{"structure notation": "CCc1ncnc2c1ccn2[C@@H]1O[C@H](CO)[C@@H](O)[C@H]1O", "IC50, nM": 2560}
{"structure notation": "OC[C@H]1O[C@@H](n2cc(F)c3c(-c4ccc[nH]4)ncnc32)[C@H](O)[C@@H]1O", "IC50, nM": 453}
{"structure notation": "OC[C@H]1O[C@@H](n2ccc3c(-c4ccc[se]4)ncnc32)[C@H](O)[C@@H]1O", "IC50, nM": 342}
{"structure notation": "OC[C@H]1O[C@@H](n2cc(Cl)c3c(-c4ccoc4)ncnc32)[C@H](O)[C@@H]1O", "IC50, nM": 1960}

[1] OC[C@H]1O[C@@H](n2ccc3c(-c4ccco4)ncnc32)[C@H](O)[C@@H]1O
[2] OC[C@H]1O[C@@H](n2cc(F)c3c(-c4cc[nH]c4)ncnc32)[C@H](O)[C@@H]1O
[3] OC[C@H]1O[C@@H](n2ccc3c(-c4cccs4)ncnc32)[C@H](O)[C@@H]1O
Order the records by IC50, with each subsequent value no larger than the one before. Order the labels as requested and give them as your answer. 2, 1, 3
